- assay_comment: CCTE_Shafer_MEA_acute_cross_correlation_HWHM: CCTE's Neural Acute Assay for Cross Correlation at Half Width at Half Maximum, Shafer Lab (AID 2284026);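 note: percent change per well from pre-dose baseline in spike cross-correlogram half width; hits are a decrease in cross-correlogram half width relative to DMSO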
- Method: CCTE_Shafer_MEA_acute assay is conducted using Axion Biosystems 48 well microelectrode array (MEA) plates and Maestro recording system. Each well of the MEA plate contains a grid of 16 microelectrodes embedded in the culture surface. Electrically active cells, such as neurons, can be cultured over the electrodes, and electrical activity in these cells can be recorded extracellularly. […]
The source made the active and inactive calls. Rule for the calls: active = hit-call score of the fitted dose curve at least 0.9, where 1 is the maximum; inactive = score below 0.9.
Classes used: T (active), F (inactive)

                                   compound  category
0   N=C(N)c1ccc(OCCCCCOc2ccc(C(=N)N)cc2)cc1         T
1  O=C(CCCN1CCC(O)(c2ccc(Cl)cc2)CC1)c1ccc(F)cc1         F
2                              CCCCCCCCCCCC         F
3        CCC(C)c1ccccc1O (stereo not given)         T
4                   O=C1NS(=O)(=O)c2ccccc21         F

Source: PubChem BioAssay (EPA / NIEHS)
